measuredTarget: NAD-dependent protein deacylase sirtuin-6 (Homo sapiens)
Sequence (Q8N6T7 whole entry): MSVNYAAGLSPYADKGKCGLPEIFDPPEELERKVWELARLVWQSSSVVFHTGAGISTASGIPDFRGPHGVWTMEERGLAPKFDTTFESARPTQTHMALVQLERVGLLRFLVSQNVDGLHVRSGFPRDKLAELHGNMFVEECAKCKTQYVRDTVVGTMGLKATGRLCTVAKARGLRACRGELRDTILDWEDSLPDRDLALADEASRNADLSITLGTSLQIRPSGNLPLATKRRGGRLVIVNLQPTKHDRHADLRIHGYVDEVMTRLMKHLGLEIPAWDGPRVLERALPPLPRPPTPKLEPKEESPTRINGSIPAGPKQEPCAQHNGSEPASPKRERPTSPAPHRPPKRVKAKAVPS
experimentNotes: Inhibition of human recombinant SIRT6 assessed as 7-amino-4-methylcoumarin labelled Arg-His-Lys-Lys(epsilon-acetyl) substrate deacetylation at 200 uM after 90 mins by Fluor-de-Lys assay
Activity calls are given as the source filed them. The calls are words filed in the database; no cut-off is given here. Square brackets hold non-standard residues; d marks the D form. Peptide text beside a SMILES is read from it. Lys(Thioacetyl) = CC(=S)NCCCC[C@H](N)C(=O)O

| molecule | inhibition |
| --- | --- |
| CC(=O)N[C@@H](C)C(=O)N[C@@H](CCCCNC(=S)CC(C)C)C(=O)N[C@@H](C)C(=O)O | Active |
| CC(=O)N[C@@H](C)C(=O)N[C@@H](CCCCNC(=O)CC(C)C)C(=O)N[C@@H](C)C(=O)O | Active |
| CSCC[C@H](NC(=O)[C@H](CC(C)C)NC(=O)[C@H](CCCCNC(C)=S)NC(=O)[C@H](CCCCN)NC(=O)[C@H](C)N)C(=O)O (H-AK[Lys(Thioacetyl)]LM-OH) | 91% |
| CC(=S)NCCCC[C@H](NC(=O)OCc1ccccc1)C(=O)Nc1ccccc1 | 36% |
| CC(=S)NCCCC[C@H](NC(=O)[C@@H]1CCCN(C(=O)OC(C)(C)C)C1)C(=O)N[C@@H](C)C(=O)O | Active |
| CSCC[C@H](NC(=O)[C@@H](NC(=O)[C@H](CCCCNC(C)=S)NC(=O)[C@H](CC(=O)O)NC(=O)[C@@H](N)CO)[C@@H](C)O)C(=O)O (H-SD[Lys(Thioacetyl)]TM-OH) | 35% |
| CC(=O)N[C@@H](C)C(=O)N[C@@H](CCCCNC(C)=S)C(=O)N[C@@H](C)C(=O)O | 54% |
| CC(=S)NCCCC[C@H](NC(=O)OCc1ccccc1)C(=O)NC1CCCCC1 | Active |
| CC(=O)N[C@@H](C)C(=O)N[C@@H](CCCCNC(=O)C=C(C)C)C(=O)N[C@@H](C)C(=O)O | 26% |
| CSCC[C@H](NC(=O)[C@H](CC(C)C)NC(=O)[C@H](CCCCNC(C)=S)NC(=O)[C@H](CCCCN)NC(=O)[C@@H](N)Cc1cnc[nH]1)C(=O)O (H-HK[Lys(Thioacetyl)]LM-OH) | 62% |
| CC(=S)NCCCC[C@H](NC(=O)CCc1ccccc1)C(=O)N[C@@H](C)C(=O)O | Active |
| CC(=[Se])NCCCC[C@H](NC(=O)OCc1ccccc1)C(=O)Nc1ccccc1 | 62% |

Origin of the recorded values: ChEMBL document CHEMBL2203212
